Field: aptazyme ON/OFF ratio. Provide a value for each of the variants that follow.
B1: Pistol ribozyme (parent)
chain: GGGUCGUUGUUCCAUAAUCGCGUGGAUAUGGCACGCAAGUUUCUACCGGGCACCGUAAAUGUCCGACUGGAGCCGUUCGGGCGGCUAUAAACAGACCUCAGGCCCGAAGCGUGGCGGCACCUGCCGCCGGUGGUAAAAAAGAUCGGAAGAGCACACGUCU

- Variants of: B1
- experimental.protocol: aptazyme ON/OFF ratio, guanine; higher = stronger switching; co-transcriptional cleavage with and without guanine
Write the number on its own, no unit after it.

**Q:** What value of aptazyme ON/OFF ratio has been reported for the following variant? U8G G9U U10G C12A C13G
**A:** 1.04

**Q:** Any idea what aptazyme ON/OFF ratio was measured for U7C G9C U11G C12A C13U ?
**A:** 1.07

**Q:** Entry U7A U8A G9C U10G U11A C12U C13A : reported aptazyme ON/OFF ratio = ?
**A:** 1.11

**Q:** Bench note: what aptazyme ON/OFF ratio did U7C U8G G9A U10C U11G C13A show?
**A:** 1.28

**Q:** # get_value(readout='aptazyme ON/OFF ratio', item= U7G G9U U10G C13U )
**A:** 1.48

**Q:** Using the record for U7A G9C U10C U11G C12A , report its aptazyme ON/OFF ratio.
**A:** 1.04

**Q:** Name the reported aptazyme ON/OFF ratio value associated with the variant U7C U8C G9U U10G U11A C12A C13A
**A:** 1.2

**Q:** Which aptazyme ON/OFF ratio value belongs to U7G U8G G9A U10C U11A C12U ?
**A:** 1.18

**Q:** Would you mind telling me what aptazyme ON/OFF ratio value was observed for U8G G9C U10A U11C C12A C13A ?
**A:** 1.06

**Q:** Look at this variant and give its reported aptazyme ON/OFF ratio. U7C U8C G9A U10A C12A C13G
**A:** 1.12

**Q:** Any idea what aptazyme ON/OFF ratio was measured for U7C U8A G9C U10G U11A C12G ?
**A:** 1.32

**Q:** Item under review: U7A G9U U10G U11C C12U C13U . Reported aptazyme ON/OFF ratio?
**A:** 1.22

**Q:** Query: aptazyme ON/OFF ratio; subject: U7A U8A G9A U10G U11G C12G
**A:** 1.52

**Q:** For U7C U8G G9U U10A U11G C12A , what is its reported aptazyme ON/OFF ratio?
**A:** 1.11

**Q:** Record request: aptazyme ON/OFF ratio value, item U8C G9U U10C U11G C13U
**A:** 1.28

**Q:** Any idea what aptazyme ON/OFF ratio was measured for U7A U8G U10C U11G C12A C13G ?
**A:** 1.61

**Q:** Can you look up the measured aptazyme ON/OFF ratio of U7C U8A G9C U10C U11C C12U C13A for me?
**A:** 1.03

**Q:** Data request, read-out aptazyme ON/OFF ratio, for U8A G9U U10A U11C C12G C13U
**A:** 1.34

**Q:** I am curious: what aptazyme ON/OFF ratio value has been reported for U7G U11C C12A ?
**A:** 1.21

**Q:** # input variant: U7G U8G G9U U10A U11G C12U C13U ; wanted: its aptazyme ON/OFF ratio
**A:** 1.08

**Q:** GET /values?readout=aptazyme ON/OFF ratio&item= U7G U8A G9A U10C U11G C12G
**A:** 1.32

**Q:** Entry U7G U8G G9C U10C U11A C12G : reported aptazyme ON/OFF ratio = ?
**A:** 1.32
